Biological target: T1, Chryseobacterium sp-62563 deamidase polypeptide (second polypeptide, deamidase domain), wildtype (Chryseobacterium sp-62563)
T1 sequence: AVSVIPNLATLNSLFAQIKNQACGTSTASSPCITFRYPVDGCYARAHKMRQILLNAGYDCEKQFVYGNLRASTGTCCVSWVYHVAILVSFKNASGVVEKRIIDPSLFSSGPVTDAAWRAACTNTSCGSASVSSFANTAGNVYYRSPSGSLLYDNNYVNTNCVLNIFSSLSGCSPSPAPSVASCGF
Test: cell-based or functional assay
Reported Relative activity of maturated deamidase (% initial rate) by item:
Number, no unit, nothing else.

// known answers, use as guide
{"binder": "Chryseobacterium sp-62563 propeptide T88P (protein) NQDPNLVAKESNETAMKDFGKTVPVGIEKEDGKFKISFMVTAQPYEIKDSKENAAYISMIKTAVENETPIHVFLKANTNEIAKVDKAPDDDIRYFKSVFTKEVKEENRK", "readout value": 46}
{"binder": "Chryseobacterium sp-62563 propeptide E30W (protein) NQDPNLVAKESNETAMKDFGKTVPVGIEKWDGKFKISFMVTAQPYEIKDSKENAAYISMIKTAVENETPIHVFLKANTNEIAKVDKATDDDIRYFKSVFTKEVKEENRK", "readout value": 27}
{"binder": "Chryseobacterium sp-62563 propeptide F99I (protein) NQDPNLVAKESNETAMKDFGKTVPVGIEKEDGKFKISFMVTAQPYEIKDSKENAAYISMIKTAVENETPIHVFLKANTNEIAKVDKATDDDIRYFKSVITKEVKEENRK", "readout value": 33}

Find the recorded Relative activity of maturated deamidase (% initial rate) belonging to Chryseobacterium sp-62563 propeptide E67T (protein) NQDPNLVAKESNETAMKDFGKTVPVGIEKEDGKFKISFMVTAQPYEIKDSKENAAYISMIKTAVENTTPIHVFLKANTNEIAKVDKATDDDIRYFKSVFTKEVKEENRK and report it.
40

Find the recorded Relative activity of maturated deamidase (% initial rate) belonging to Chryseobacterium sp-62563 propeptide F99L (protein) NQDPNLVAKESNETAMKDFGKTVPVGIEKEDGKFKISFMVTAQPYEIKDSKENAAYISMIKTAVENETPIHVFLKANTNEIAKVDKATDDDIRYFKSVLTKEVKEENRK and report it.
46

Find the recorded Relative activity of maturated deamidase (% initial rate) belonging to Chryseobacterium sp-62563 propeptide F99A (protein) NQDPNLVAKESNETAMKDFGKTVPVGIEKEDGKFKISFMVTAQPYEIKDSKENAAYISMIKTAVENETPIHVFLKANTNEIAKVDKATDDDIRYFKSVATKEVKEENRK and report it.
52
